assay: Selectivity index, ratio of GIC90 for Cytotoxicity against mouse RAW264.7 cells to MIC90 for Antitubercular activity against Mycobacterium bovis BCG ATCC 35734; assay type: toxicity, cell-based; details: read-out: Selectivity Index
endpoint: selectivity ratio
Output spec: single numeric token, no unit.

| compound | selectivity ratio |
| --- | --- |
| Oc1ccccc1C1=NNC(c2ccc(Cl)cc2)C1 (configuration not stated) | 16 |

Alright, here's another compound for you.
// query Could you tell me which selectivity ratio is on file for Oc1ccccc1C1=NNC(c2ccc(Br)cc2)C1 (configuration not stated) ?
// result 16

====

Items are presented alongside their recorded AUC(0-inf).
test: AUCinfinity in Sprague-Dawley rat at 1 mg/kg, iv; type: ADME, organism-based; set-up: time infinity, route intravenous, dose 1 mg/kg; settings: in vivo
Give the value in ng·h/mL but do not write ng·h/mL after it.

| compound | endpoint | reported |
| --- | --- | --- |
| Oc1ccccc1C1=NNC(c2ccc(Cl)cc2)C1 (configuration not stated) | AUC(0-inf) | 197 |

Alright, here's another compound for you.
// query Could you tell me which AUC(0-inf) is on file for Oc1ccccc1C1=NNC(c2ccc(Br)cc2)C1 (configuration not stated) ?
// result 167

====

experiment: Selectivity index, ratio of GIC90 for Cytotoxicity against mouse RAW264.7 cells MIC90 for Antitubercular activity against Mycobacterium aurum ATCC 10437; assay type: toxicity, cell-based; details: read-out: Selectivity Index
Items are presented alongside their recorded selectivity ratio.
Output spec: single numeric token, no unit.

| compound | selectivity ratio |
| --- | --- |
| Oc1ccccc1C1=NNC(c2ccc(Br)cc2)C1 (configuration not stated) | 8 |

// query Could you tell me which selectivity ratio is on file for Oc1ccccc1C1=NNC(c2ccc(Cl)cc2)C1 (configuration not stated) ?
// result 8

====

system: Mycolicibacterium smegmatis; experiment: Antitubercular activity against Mycobacterium smegmatis mc2155 ATCC 700084 cultured in GAST media incubated for 24 hrs by resazurin microtiter assay; type: functional
endpoint: MIC90 (µg/mL)
Give the value in µg/mL but do not write µg/mL after it.

| molecule | unitTag | MIC90 |
| --- | --- | --- |
| CO[C@H]1/C=C/O[C@@]2(C)Oc3c(C)c(O)c4c(O)c(c(/C=N/N5CCN(C)CC5)c(O)c4c3C2=O)NC(=O)/C(C)=C\C=C\[C@H](C)[C@H](O)[C@@H](C)[C@@H](O)[C@@H](C)[C@H](OC(C)=O)[C@@H]1C [RIFAMPIN] | µg/mL | 8 |

// query Hi! What's the reported MIC90 for CC(=O)N1N=C(c2ccccc2O)CC1c1cccc(Cl)c1 (centres undefined) on Mycolicibacterium smegmatis?
// result 128

====

Items are presented alongside their recorded AUC(0-t).
experiment: AUClast in Sprague-Dawley rat at 5 mg/kg, po; format: ADME, organism-based; parameters: time 0 - last, route oral, dose 5 mg/kg; conditions: in vivo
Give the value in ng·h/mL but do not write ng·h/mL after it.

| compound | unitTag | AUC(0-t) |
| --- | --- | --- |
| Oc1ccccc1C1=NNC(c2ccc(Cl)cc2)C1 (configuration not stated) | ng·h/mL | 203 |

// query Could you tell me which AUC(0-t) is on file for Oc1ccccc1C1=NNC(c2ccc(Br)cc2)C1 (configuration not stated) ?
// result 167
